- protocol text: growth inhibition, single agents and combos, UWB1.289, cell-based, BGB or cisplatin combos, synergistic combos for chromothripsis tumors (AID 1671456);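 also: cells exposed to compound for four days; 0% = vehicle DMSO and 100% = killing by high DMSO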
- experimental parameters: UWB1.289 ovarian carcinoma cells, measured here: inhibition with BGB combination, at 0.05 µM, stronger effect = higher value
readout: inhibition (%)
Report the figure in % without appending any unit label.

Consider the worked cases shown below.
**Query** I have this compound here, CCn1cc(C(=O)O)c(=O)c2cc3c(cc21)OCO3 , and I need its recorded inhibition.
**Result** -2.14

**Query** Subsequent entry: O=c1c(O)c(-c2ccc(O)c(O)c2)oc2cc(O)cc(O)c12
**Result** -4.11

**Query** Also, CN(C)c1ccc(C(=C2C=CC(=[N+](C)C)C=C2)c2ccc(N(C)C)cc2)cc1 please.
**Result** -11.5

**Query** Quick one: O=c1oc2c(O)c(O)cc3c(=O)oc4c(O)c(O)cc1c4c23
**Result** -22.8

**Query** Also, O=C(O)P(=O)(O)O please.
**Result** -27.2

Further cases:
**Query** I would be grateful if you could share the reported inhibition for NC(=O)NO .
**Result** 5.3

**Query** What do we get for Nc1nc(=S)c2[nH]cnc2[nH]1 ?
**Result** -17.4

----------
- protocol text: restoration of touch response, mutant HTT neurons – whole organism, C. elegans mechanosensory neurons, N-terminal huntingtin (AID 1599)
- experimental parameters: C. elegans polyQ-huntingtin mechanosensory neurons, stronger effect = higher value
Entries with a potency or affinity are not part of this list.
Please use Condition met whenever rescue above control is not below 0, and Condition not met whenever it is.

**Query** Assess whether reported rescue above control for Cc1cc(C(C)(C)C)cc(C)c1CC1=NCCN1 sits at 0 or higher.
**Result** Condition not met

**Query** Also, Cc1ncc([N+](=O)[O-])n1CCO please.
**Result** Condition met

**Query** CC(=O)Nc1ccc(S(=O)(=O)Nc2ccc([N+](=O)[O-])cc2)cc1 , same question.
**Result** Condition not met

**Query** // query: NS(=O)(=O)c1cc2c(cc1Cl)NC(C1CC3C=CC1C3)NS2(=O)=O (centres undefined)
**Result** Condition met

----------
- protocol text: P. berghei load reduction in hepatocytes – cell-based, HepG2, luciferase luminescence, HepG2 viability, primary screen (AID 624349);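 also: 100% = mean of DMSO negative control wells on the same plate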
- experimental parameters: P. berghei liver stage in HepG2, luciferase luminescence, concentration not given here; measured here: HepG2 viability without parasites
viability by entry:

**Query** So what does the record say about viability for O=c1c(-c2ccccc2)c1-c1ccccc1 ?
**Result** 65.5%

**Query** Check CC[N+](C)(CC)CCOC(=O)C(O)(c1ccccc1)C1CCCCC1 (stereo not given) too.
**Result** 67.2%

**Query** Again, but for COc1ccc(-c2cc(C(F)F)nn2-c2ccc(S(N)(=O)=O)cc2)cc1F
**Result** 97.2%

**Query** Check O=C(CCCCC(=O)Nc1c(I)cc(I)c(C(=O)O)c1I)Nc1c(I)cc(I)c(C(=O)O)c1I too.
**Result** 93.2%

// moving on: another record for viability
**Query** viability for Cc1nc2sccn2c(=O)c1CCN1CCC(=C(c2ccc(F)cc2)c2ccc(F)cc2)CC1 ?
**Result** 91.8%

----------
- protocol text: compounds distorting NS3 helicase fluorescence signal – biochemical, NIH Clinical Collection, artefact control for HCV NS3 helicase inhibitor project (AID 743272);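 also: HCV NS3 helicase with a Cy5 labelled single stranded DNA probe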
- experimental parameters: fluorescence interference counterscreen, HCV NS3 helicase assay
The source made the active and inactive calls. The rule behind the calls is not given here. Starred links: 1 amine or outer side, 2 acyl side, 3 side chain; linkers in the order of their positions; H or OH if unused. Positions of bridges follow the written chain, without caps; N, C: chain ends. Non-standard residues stand in square brackets, D forms with d. Residues, ends and D or L forms follow the SMILES beside them. Chains are numbered I, II in the order given. Actinocin(9to1) = Cc1c2oc3c(C)ccc(C(=O)[*:1])c3nc-2c(C(=O)[*:2])c(N)c1=O; NMeV = CN[C@H](C(=O)O)C(C)C; Sar = CNCC(=O)O
Classes to choose from: true (active), false (inactive)

Examples with answers:
**Query** Could you kindly confirm the outcome this assay logged for CC(C)(C(=O)c1cccnc1)c1cccnc1 ?
**Result** false

**Query** Again, but for Cc1ncc([N+](=O)[O-])n1CC(O)CCl (configuration not stated)
**Result** false

**Query** Okay, and CN1CCN(C2=Nc3ccccc3Oc3ccc(Cl)cc32)CC1 ?
**Result** false

**Query** Similarly, Clc1ccc2c(c1)CCc1cccnc1C2=C1CCNCC1 ?
**Result** false

**Query** Follow-up entry: Clc1ccc2nsnc2c1NC1=NCCN1
**Result** false

Next:
**Query** Just curious, what result did CC(C)(C)NC(=O)[C@H]1CC[C@H]2[C@@H]3CC[C@H]4NC(=O)C=C[C@]4(C)[C@H]3CC[C@]12C get here?
**Result** false

**Query** And for Cc1cccc(C)c1NC(=O)C(C)N (configuration not stated) ?
**Result** false

**Query** Could you do the same for CN(CCCN1c2ccccc2CCc2ccccc21)CC(=O)c1ccc(Cl)cc1 , please?
**Result** true

**Query** Another: NC(N)=Nc1nc(CSCC/C(N)=N/S(N)(=O)=O)cs1
**Result** false

**Query** Same read-out for Cc1c2oc3c(C)ccc(C(=O)N[C@@H]4C(=O)N[C@H](C(C)C)C(=O)N5CCC[C@H]5C(=O)N(C)CC(=O)N(C)[C@@H](C(C)C)C(=O)O[C@@H]4C)c3nc-2c(C(=O)N[C@@H]2C(=O)N[C@H](C(C)C)C(=O)N3CCC[C@H]3C(=O)N(C)CC(=O)N(C)[C@@H](C(C)C)C(=O)O[C@@H]2C)c(N)c1=O (I: T[dV]P[Sar][NMeV] / II: T[dV]P[Sar][NMeV]; ester I:1-I:C, II:1-II:C; linker I:N-II:N via Actinocin(9to1)) ?
**Result** false

**Query** Try CN(C)CCCSc1ccccc1NC(=O)/C=C/c1ccccc1 next.
**Result** false

**Query** Nc1nc(F)nc2c1ncn2[C@@H]1O[C@H](CO)[C@@H](O)[C@@H]1O ?
**Result** false

**Query** Moving on to the next compound: CCN1CC(CCN2CCOCC2)C(c2ccccc2)(c2ccccc2)C1=O (configuration not stated)
**Result** false

**Query** Query C[C@H](NC(CCc1ccccc1)C(=O)O)C(=O)N1CCC[C@H]1C(=O)O (some centres not stated) next
**Result** false

**Query** Next record, please: CCN(CC)CC1CCCCN1CC(=O)N1c2ccccc2C(=O)Nc2cccnc21 (configuration not stated)
**Result** false

**Query** Try the compound Nc1ccc(O)c(C(=O)O)c1
**Result** false

// provenance: PubChem BioAssay
